Where these numbers come from: patent US20080311122A1

Target: T1, recombinant HMG1 purified from E. coli as a calmodulin binding protein (CBP) fusion protein (human, UniProt A9RA84 1-215 (Papio anubis entry))
T1 construct: also called rHMG1; rHMGB1
T1 sequence: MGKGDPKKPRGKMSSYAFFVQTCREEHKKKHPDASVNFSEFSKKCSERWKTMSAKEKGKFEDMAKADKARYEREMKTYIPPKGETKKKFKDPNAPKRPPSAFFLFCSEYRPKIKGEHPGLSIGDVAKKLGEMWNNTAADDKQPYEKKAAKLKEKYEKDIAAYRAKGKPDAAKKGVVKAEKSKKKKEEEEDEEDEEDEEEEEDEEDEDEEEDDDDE
Assay: BIAcore, mAb immobilized, HMG1 injected, steady-state model
Property: Kd (nM)
Number only, in nM; omit the unit.

The reported value for anti-HMG1 antibody G4 (antibody, V domains shown, also called ATCC PTA-6258) VH: EVQLLESGGGLVQPGGSLRLSCAASGFTFSWYDMTWVRQAPGKGLEWVSSISPSGGYTKYADSVKGRFTISRDNSKNTLYLQMNSLRAEDTAVYYCTTEFYDYLDVWGKGTTVTVSS VL: DIQMTQSPGTLSLSPGEGATLSCRASQSVSSTYLAWYQQKPGQAPRLLIYEASKRATGTPARFSGSGSGTDFTLSISSLEPEDFAVYYCQHRHNWPPQWTFGQGTKVEVK in terms of Kd is 30
